Taken from ChEMBL document CHEMBL1137082.

I'd appreciate it if you could supply pIC50 values for the items below.
# Subject Of Test: Nitric oxide synthase, inducible (Mus musculus, UniProt P29477)
# Sequence (P29477 whole entry): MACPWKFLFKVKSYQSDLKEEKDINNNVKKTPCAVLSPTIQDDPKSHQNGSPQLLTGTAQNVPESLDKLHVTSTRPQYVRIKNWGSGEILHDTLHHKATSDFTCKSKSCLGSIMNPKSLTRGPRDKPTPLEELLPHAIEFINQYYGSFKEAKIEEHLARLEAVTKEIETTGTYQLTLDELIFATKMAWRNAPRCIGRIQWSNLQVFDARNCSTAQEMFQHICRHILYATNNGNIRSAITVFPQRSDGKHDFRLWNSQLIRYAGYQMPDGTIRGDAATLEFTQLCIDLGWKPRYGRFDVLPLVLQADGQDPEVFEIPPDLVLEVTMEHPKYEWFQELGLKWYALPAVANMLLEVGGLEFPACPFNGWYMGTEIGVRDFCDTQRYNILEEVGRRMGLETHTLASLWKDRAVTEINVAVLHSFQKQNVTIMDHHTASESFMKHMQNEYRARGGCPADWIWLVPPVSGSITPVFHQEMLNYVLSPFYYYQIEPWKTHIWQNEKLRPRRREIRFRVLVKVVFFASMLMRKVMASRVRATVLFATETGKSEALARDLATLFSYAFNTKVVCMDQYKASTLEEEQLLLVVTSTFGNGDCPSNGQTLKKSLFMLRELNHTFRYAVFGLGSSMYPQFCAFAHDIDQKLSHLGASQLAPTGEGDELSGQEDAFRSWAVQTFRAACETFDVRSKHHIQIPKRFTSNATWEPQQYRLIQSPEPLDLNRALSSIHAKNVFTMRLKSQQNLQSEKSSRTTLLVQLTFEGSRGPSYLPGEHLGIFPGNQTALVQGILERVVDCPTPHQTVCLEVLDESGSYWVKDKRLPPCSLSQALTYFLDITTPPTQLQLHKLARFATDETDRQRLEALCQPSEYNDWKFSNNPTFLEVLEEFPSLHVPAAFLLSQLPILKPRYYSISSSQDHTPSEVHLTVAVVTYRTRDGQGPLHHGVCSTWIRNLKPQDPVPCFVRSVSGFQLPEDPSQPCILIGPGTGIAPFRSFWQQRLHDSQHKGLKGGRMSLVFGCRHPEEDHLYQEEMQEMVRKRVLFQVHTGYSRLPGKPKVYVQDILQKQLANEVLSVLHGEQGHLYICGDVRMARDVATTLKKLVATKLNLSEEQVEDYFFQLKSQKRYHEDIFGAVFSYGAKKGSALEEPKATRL
Numbers only, as −log10 of the molar value.

N=C(NCCC[C@H](N)C(=O)NC1CNC(C(N)=O)C1)N[N+](=O)[O-] (single isomer, unassigned)    3.36

Exam item: Specify the recorded pIC50 for NC(=O)[C@@H]1C[C@@H](NC(=O)[C@@H](N)CCC/N=C(\N)N[N+](=O)[O-])CN1 , system: Nitric oxide synthase, inducible (Mus musculus, UniProt P29477).
Marked response: 4.19

----------
# Subject Of Test: Nitric oxide synthase 1 (Rattus norvegicus)
# Sequence (P29476 whole entry): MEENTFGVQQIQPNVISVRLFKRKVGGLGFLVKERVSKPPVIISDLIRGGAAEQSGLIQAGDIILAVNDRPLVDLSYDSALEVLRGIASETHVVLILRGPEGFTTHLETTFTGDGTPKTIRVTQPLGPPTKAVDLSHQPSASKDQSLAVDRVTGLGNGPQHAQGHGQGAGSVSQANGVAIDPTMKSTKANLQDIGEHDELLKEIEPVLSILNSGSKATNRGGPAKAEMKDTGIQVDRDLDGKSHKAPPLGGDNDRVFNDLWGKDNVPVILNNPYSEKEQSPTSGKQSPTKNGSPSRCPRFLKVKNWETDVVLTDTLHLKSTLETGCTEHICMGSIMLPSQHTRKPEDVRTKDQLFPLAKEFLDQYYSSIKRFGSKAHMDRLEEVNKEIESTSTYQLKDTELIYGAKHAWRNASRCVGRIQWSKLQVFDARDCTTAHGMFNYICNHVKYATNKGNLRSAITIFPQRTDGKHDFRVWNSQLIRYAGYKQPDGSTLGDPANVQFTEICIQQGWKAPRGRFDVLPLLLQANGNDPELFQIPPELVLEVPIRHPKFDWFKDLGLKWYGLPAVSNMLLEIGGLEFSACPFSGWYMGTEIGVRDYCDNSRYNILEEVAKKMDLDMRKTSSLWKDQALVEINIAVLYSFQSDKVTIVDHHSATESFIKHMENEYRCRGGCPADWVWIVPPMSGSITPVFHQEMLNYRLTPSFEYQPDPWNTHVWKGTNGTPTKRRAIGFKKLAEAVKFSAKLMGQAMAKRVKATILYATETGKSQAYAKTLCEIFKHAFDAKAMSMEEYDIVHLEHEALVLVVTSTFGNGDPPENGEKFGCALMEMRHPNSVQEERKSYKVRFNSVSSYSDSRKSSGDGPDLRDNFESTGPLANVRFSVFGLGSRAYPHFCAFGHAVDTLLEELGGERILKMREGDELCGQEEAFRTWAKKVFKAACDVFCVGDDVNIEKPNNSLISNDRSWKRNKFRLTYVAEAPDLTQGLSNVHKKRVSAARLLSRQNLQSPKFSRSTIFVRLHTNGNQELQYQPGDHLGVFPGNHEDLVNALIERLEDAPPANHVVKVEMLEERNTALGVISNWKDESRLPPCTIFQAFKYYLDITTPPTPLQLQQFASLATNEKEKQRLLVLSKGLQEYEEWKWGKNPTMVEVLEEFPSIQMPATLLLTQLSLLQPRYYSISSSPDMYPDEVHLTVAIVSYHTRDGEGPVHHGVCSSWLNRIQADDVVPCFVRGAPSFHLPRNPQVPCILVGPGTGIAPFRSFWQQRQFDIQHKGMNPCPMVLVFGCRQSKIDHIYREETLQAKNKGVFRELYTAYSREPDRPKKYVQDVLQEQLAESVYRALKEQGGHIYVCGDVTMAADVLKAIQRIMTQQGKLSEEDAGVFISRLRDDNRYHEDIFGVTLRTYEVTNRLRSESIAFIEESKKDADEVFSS
# Assay Explanation: Inhibitory activity against neuronal nitric oxide synthase (nNOS)
I'd appreciate it if you could supply IC50 values for the items below.

NC(=O)[C@@H]1C[C@@H](N)CN1C(=O)[C@@H](N)CCC/N=C(\N)N[N+](=O)[O-]    ~100 µM

Provide IC50 for all items below, preserving their order.
1. N=C(NCCC[C@H](N)C(=O)NC1CNC(C(N)=O)C1)N[N+](=O)[O-] (single isomer, unassigned)
2. N=C(NCCC[C@@H](N)C(=O)N1CC(N)C[C@@H]1C(N)=O)N[N+](=O)[O-] (single isomer, unassigned; cis)
3. NC(=O)[C@@H]1C[C@@H](NC(=O)C(F)(F)F)CN1C(=O)[C@@H](N)CCC/N=C(\N)N[N+](=O)[O-]
4. NC(=O)[C@@H]1C[C@@H](NC(=O)[C@@H](N)CCC/N=C(\N)N[N+](=O)[O-])CN1
5. CC(=N)Nc1cccc(CN)c1

Marked response:
9.6 µM
~100 µM
~100 µM
0.64 µM
0.011 µM
